# TARGET OR TEST SYSTEM: AcmJRL (Ananas comosus)
# Construct: native, purified from pineapple stem (D-mannose-Agarose, Superdex 75); initiator Met absent; N-terminus SGLVGLG; residues 2-145; not glycosylated; homodimer in solution, tetramer in crystal
# Sequence (Q53J09 entry or part of it): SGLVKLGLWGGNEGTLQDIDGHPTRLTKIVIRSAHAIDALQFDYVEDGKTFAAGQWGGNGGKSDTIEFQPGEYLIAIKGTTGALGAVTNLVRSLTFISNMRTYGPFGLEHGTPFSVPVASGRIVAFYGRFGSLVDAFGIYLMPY
# PROCEDURE SUMMARY: isothermal titration calorimetry
# Type: binding
# RUN PARAMETERS: Tris-HCl 50 mM, 150 mM NaCl, pH 7.4, 25 °C; fit with fixed n = 2 equivalent sites
# Excerpt: isothermal titration calorimetry on AcmJRL
Ka (M^-1) below 700 gives NOT MET; Ka (M^-1) at or above it gives MET.

Here's what some known entries look like.
>  <COMPOUND>
OC[C@H]1OC(O)[C@H](O)[C@@H](O)[C@@H]1O (some centres unmarked)

>  <TARGET OR TEST SYSTEM>
AcmJRL (Ananas comosus)

>  <CATEGORY>
NOT MET

$$$$
>  <COMPOUND>
OC[C@H]1O[C@H](OC[C@H]2OC(O)[C@@H](O)[C@@H](O[C@H]3O[C@H](CO)[C@@H](O)[C@H](O)[C@@H]3O)[C@@H]2O)[C@@H](O)[C@@H](O)[C@@H]1O (some centres unmarked)

>  <TARGET OR TEST SYSTEM>
AcmJRL (Ananas comosus)

>  <CATEGORY>
MET

$$$$
>  <COMPOUND>
OC[C@H]1O[C@H](OC[C@H]2O[C@H](OC[C@H]3OC(O)[C@@H](O)[C@@H](O[C@H]4O[C@H](CO)[C@@H](O)[C@H](O)[C@@H]4O)[C@@H]3O)[C@@H](O)[C@@H](O[C@H]3O[C@H](CO)[C@@H](O)[C@H](O)[C@@H]3O)[C@@H]2O)[C@@H](O)[C@@H](O)[C@@H]1O (some centres unmarked)

>  <TARGET OR TEST SYSTEM>
AcmJRL (Ananas comosus)

>  <CATEGORY>
MET

$$$$
>  <COMPOUND>
CC(=O)N[C@H]1C(O)O[C@H](CO)[C@@H](O)[C@@H]1O (some centres unmarked)

>  <TARGET OR TEST SYSTEM>
AcmJRL (Ananas comosus)

>  <CATEGORY>
NOT MET

$$$$

Let's switch to this compound now.
hey, is Ka (M^-1) for this one >= 700? OC[C@H]1O[C@H](O[C@H]2[C@H](O)[C@@H](CO)OC(O)[C@H]2O)[C@@H](O)[C@@H](O)[C@@H]1O (some centres unmarked)
NOT MET
